This section presents molecules with their documented [3H]IP, analog Plus NMB (3 nM) values.
molecular target: NMB receptor (Rattus norvegicus, UniProt P24053); test: [3H]inositol phosphates in NMB-R transfected cells (alone or NMB-stimulated); type: cell-based; set-up: a full length NMB-preferring bombesin receptor clone generated from rat esophagus; expressed in transfected cells; conditions: NMB-R transfected cells; analog 10 μM plus NMB 3 nM; NMB without analog 186 ± 58
Sequence (P24053 whole entry): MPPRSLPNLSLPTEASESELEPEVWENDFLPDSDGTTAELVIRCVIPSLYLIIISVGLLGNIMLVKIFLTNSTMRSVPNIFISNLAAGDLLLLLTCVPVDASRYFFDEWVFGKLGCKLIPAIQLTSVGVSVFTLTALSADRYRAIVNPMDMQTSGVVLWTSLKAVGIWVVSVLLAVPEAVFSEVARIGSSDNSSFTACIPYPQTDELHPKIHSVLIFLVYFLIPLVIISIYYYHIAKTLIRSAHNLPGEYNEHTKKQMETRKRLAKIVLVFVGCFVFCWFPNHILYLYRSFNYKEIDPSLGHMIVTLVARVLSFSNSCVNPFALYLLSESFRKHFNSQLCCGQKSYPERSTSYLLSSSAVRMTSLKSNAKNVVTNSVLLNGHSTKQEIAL
Where a SMILES comes first, the peptide text is derived from it. Bridges are numbered along the chain shown (N, C = ends). [ ]: non-standard residue; d: D form. 2Nal = N[C@@H](Cc1ccc2ccccc2c1)C(=O)O
Assay Metric: [3H]IP, analog Plus NMB (3 nM) (dym × 10^3)

Molecule: CC(C)[C@@H]1NC(=O)[C@H](CCCCN)NC(=O)[C@@H](Cc2c[nH]c3ccccc23)NC(=O)[C@H](Cc2ccc(O)cc2)NC(=O)[C@@H](NC(=O)[C@H](N)Cc2c[nH]c3ccccc23)CSSC[C@@H](C(=O)N[C@@H](Cc2ccc3ccccc3c2)C(N)=O)NC1=O [Analog #12] (H-[dW]CY[dW]KVC[2Nal]-NH2; disulfide 2-7)
Assay Metric: [3H]IP, analog Plus NMB (3 nM)
Measured Value: 43

Molecule: C[C@@H](O)[C@H](NC(=O)[C@@H]1CSSC[C@H](NC(=O)[C@H](N)Cc2ccc3ccccc3c2)C(=O)N[C@@H](Cc2ccc(O)cc2)C(=O)N[C@H](Cc2c[nH]c3ccccc23)C(=O)N[C@@H](CCCCN)C(=O)N[C@@H]([C@@H](C)O)C(=O)N1)C(N)=O
Assay Metric: [3H]IP, analog Plus NMB (3 nM)
Measured Value: 188

Molecule: C[C@@H](O)[C@@H]1NC(=O)[C@H](CCCCN)NC(=O)[C@@H](Cc2c[nH]c3ccccc23)NC(=O)[C@H](Cc2ccc(O)cc2)NC(=O)[C@@H](NC(=O)[C@H](N)Cc2ccccc2)CSSC[C@@H](C(=O)N[C@@H](Cc2ccc3ccccc3c2)C(N)=O)NC1=O [Analog #7] (H-[dF]CY[dW]KTC[2Nal]-NH2; disulfide 2-7)
Assay Metric: [3H]IP, analog Plus NMB (3 nM)
Measured Value: 99

----------
This section presents compounds with their documented Ki values.
biological target: mu opioid receptors (Rattus norvegicus); construct: rat forebrain (TRH, mu and delta opioid membrane assays); from tissue; host or cells: rat forebrain membranes; assay: Mu opioid membrane assay, [3H]DAGO, rat forebrain membranes; type: binding; conditions: Cheng method; unit inferred; read-out: affinity, [3H]DAGO, Rat Forebrain membranes (mu opioid receptors)
Sequence (P33535 whole entry): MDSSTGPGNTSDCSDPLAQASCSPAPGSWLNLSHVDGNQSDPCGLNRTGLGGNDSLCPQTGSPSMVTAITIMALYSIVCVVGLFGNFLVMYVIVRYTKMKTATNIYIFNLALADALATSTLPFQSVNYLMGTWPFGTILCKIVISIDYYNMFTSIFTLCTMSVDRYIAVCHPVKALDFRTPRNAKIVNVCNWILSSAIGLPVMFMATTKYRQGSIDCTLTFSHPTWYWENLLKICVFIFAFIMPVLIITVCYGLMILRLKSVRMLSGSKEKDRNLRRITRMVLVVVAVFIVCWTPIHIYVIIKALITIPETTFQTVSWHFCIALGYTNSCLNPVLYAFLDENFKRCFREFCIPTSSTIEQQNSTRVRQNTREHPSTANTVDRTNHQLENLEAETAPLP
Where a SMILES comes first, the peptide text is derived from it. Bridges are numbered along the chain shown (N, C = ends). [ ]: non-standard residue; d: D form. 2Nal = N[C@@H](Cc1ccc2ccccc2c1)C(=O)O; d2Nal = N[C@H](Cc1ccc2ccccc2c1)C(=O)O

Compound: CC(C)[C@@H]1NC(=O)[C@H](CCCCN)NC(=O)[C@@H](Cc2c[nH]c3ccccc23)NC(=O)[C@H](Cc2ccc(O)cc2)NC(=O)[C@@H](NC(=O)[C@H](N)Cc2c[nH]c3ccccc23)CSSC[C@@H](C(=O)N[C@@H](Cc2ccc3ccccc3c2)C(N)=O)NC1=O [Analog #12] (H-[dW]CY[dW]KVC[2Nal]-NH2; disulfide 2-7)
Ki: > 10000 nM
//
Compound: CC(C)[C@@H]1NC(=O)[C@H](Cc2c[nH]cn2)NC(=O)[C@@H](Cc2c[nH]c3ccccc23)NC(=O)[C@H](Cc2ccc(O)cc2)NC(=O)[C@@H](NC(=O)[C@H](N)Cc2ccc3ccccc3c2)CSSC[C@@H](C(=O)N[C@@H](Cc2ccc3ccccc3c2)C(N)=O)NC1=O [Analog #14] (H-[d2Nal]CY[dW]HVC[2Nal]-NH2; disulfide 2-7; N-terminus assumed)
Ki: 500 nM
//
Compound: CC(C)[C@@H]1NC(=O)[C@H](CCCCN)NC(=O)[C@@H](Cc2c[nH]c3ccccc23)NC(=O)[C@H](Cc2ccc(O)cc2)NC(=O)[C@@H](NC(=O)[C@H](N)Cc2ccc3ccccc3c2)CSSC[C@@H](C(=O)N[C@H](Cc2ccc3ccccc3c2)C(N)=O)NC1=O [Analog #8] (H-[d2Nal]CY[dW]KVC[d2Nal]-NH2; disulfide 2-7)
Ki: 280 nM
//
Compound: C[C@@H](O)[C@@H]1NC(=O)[C@H](CCCCN)NC(=O)[C@@H](Cc2c[nH]c3ccccc23)NC(=O)[C@H](Cc2ccc(O)cc2)NC(=O)[C@@H](NC(=O)[C@H](N)Cc2ccccc2)CSSC[C@@H](C(=O)N[C@@H](Cc2ccc3ccccc3c2)C(N)=O)NC1=O [Analog #7] (H-[dF]CY[dW]KTC[2Nal]-NH2; disulfide 2-7)
Ki: 200 nM
//
Compound: C[C@@H](O)[C@H](NC(=O)[C@@H]1CSSC[C@H](NC(=O)[C@H](N)Cc2ccc3ccccc3c2)C(=O)N[C@@H](Cc2ccc(O)cc2)C(=O)N[C@H](Cc2c[nH]c3ccccc23)C(=O)N[C@@H](CCCCN)C(=O)N[C@@H](Cc2ccc3ccccc3c2)C(=O)N1)C(N)=O [Analog #2]
Ki: 1.9 nM
//
Compound: CC(C)[C@@H]1NC(=O)[C@H](CCCCN)NC(=O)[C@@H](Cc2c[nH]c3ccccc23)NC(=O)[C@H](Cc2ccc(O)cc2)NC(=O)[C@@H](NC(=O)[C@H](N)Cc2ccc3ccccc3c2)CSSC[C@H](C(=O)N[C@@H](Cc2ccc3ccccc3c2)C(N)=O)NC1=O [Analog #11] (H-[d2Nal]CY[dW]KV[dC][2Nal]-NH2; disulfide 2-7)
Ki: > 10000 nM

----------
This section presents compounds with their documented IC50 values.
molecular target: NMB receptor (Rattus norvegicus, UniProt P24053); test: [3H]inositol phosphates in NMB-R transfected cells (alone or NMB-stimulated); type: cell-based; design: a full length NMB-preferring bombesin receptor clone generated from rat esophagus; expressed in transfected cells; settings: NMB-R transfected cells; 3 nM NMB; read-out: IC50 NMB-stimulated [3H]IP, Transfected Cells (values in μM)
Where a SMILES comes first, the peptide text is derived from it. Bridges are numbered along the chain shown (N, C = ends). [ ]: non-standard residue; d: D form. 2Nal = N[C@@H](Cc1ccc2ccccc2c1)C(=O)O; d2Nal = N[C@H](Cc1ccc2ccccc2c1)C(=O)O; Lys(Et2) = CCN(CC)CCCC[C@H](N)C(=O)O

Compound: C[C@@H](O)[C@@H]1NC(=O)[C@H](CCCCN)NC(=O)[C@@H](Cc2c[nH]c3ccccc23)NC(=O)[C@H](Cc2ccc(O)cc2)NC(=O)[C@@H](NC(=O)[C@H](N)Cc2ccccc2)CSSC[C@@H](C(=O)N[C@@H](Cc2ccc3ccccc3c2)C(N)=O)NC1=O [Analog #7] (H-[dF]CY[dW]KTC[2Nal]-NH2; disulfide 2-7)
IC50: > 10 µM

Compound: CC(C)[C@@H]1NC(=O)[C@H](CCCCN)NC(=O)[C@@H](Cc2ccc3ccccc3c2)NC(=O)[C@H](Cc2ccc(O)cc2)NC(=O)[C@@H](NC(=O)[C@H](N)Cc2ccc3ccccc3c2)CSSC[C@@H](C(=O)N[C@@H](Cc2ccc3ccccc3c2)C(N)=O)NC1=O [Analog #17] (H-[d2Nal]CY[d2Nal]KVC[2Nal]-NH2; disulfide 2-7)
IC50: 1.2 to 1.8 µM

Compound: CCN(CC)CCCC[C@@H]1NC(=O)[C@@H](Cc2c[nH]c3ccccc23)NC(=O)[C@H](Cc2ccc(O)cc2)NC(=O)[C@@H](NC(=O)[C@H](N)Cc2ccccc2)CSSC[C@@H](C(=O)N[C@@H](Cc2ccc3ccccc3c2)C(N)=O)NC(=O)[C@H]([C@@H](C)O)NC1=O [Analog #16] (H-[dF]CY[dW][Lys(Et2)]TC[2Nal]-NH2; disulfide 2-7)
IC50: 7.2 to 9.8 µM

----------
This section presents compounds with their documented fold decrease in NMB receptor affinity compared with cyclo SS-octa (#1) values.
biological target: rat NMB receptor (Rattus norvegicus, UniProt P24053); construct: a full length NMB-preferring bombesin receptor clone generated from rat esophagus; expressed in transfected cells; experiment: Binding of 125I-[D-Tyr0]NMB to NMB-R transfected BALB 3T3 cells; details: structure-function comparison from Table 1
Where a SMILES comes first, the peptide text is derived from it. Bridges are numbered along the chain shown (N, C = ends). [ ]: non-standard residue; d: D form. 2Nal = N[C@@H](Cc1ccc2ccccc2c1)C(=O)O; d2Nal = N[C@H](Cc1ccc2ccccc2c1)C(=O)O
Assay Metric: fold decrease in NMB receptor affinity compared with cyclo SS-octa (#1) (fold)

Compound: CC(C)[C@@H]1NC(=O)[C@H](CCCCN)NC(=O)[C@@H](Cc2c[nH]c3ccccc23)NC(=O)[C@H](Cc2ccc(O)cc2)NC(=O)[C@@H](NC(=O)[C@H](N)Cc2ccc3ccccc3c2)CSSC[C@H](C(=O)N[C@@H](Cc2ccc3ccccc3c2)C(N)=O)NC1=O [Analog #11] (H-[d2Nal]CY[dW]KV[dC][2Nal]-NH2; disulfide 2-7)
Result Unit: fold
Measured Value: 5

Compound: C[C@@H](O)[C@H](NC(=O)[C@@H]1CSSC[C@H](NC(=O)[C@H](N)Cc2ccc3ccccc3c2)C(=O)N[C@@H](Cc2ccc(O)cc2)C(=O)N[C@H](Cc2c[nH]c3ccccc23)C(=O)N[C@@H](CCCCN)C(=O)N[C@@H](Cc2ccc3ccccc3c2)C(=O)N1)C(N)=O [Analog #2]
Result Unit: fold
Measured Value: 4

Compound: CC(C)[C@@H]1NC(=O)[C@H](CCCCN)NC(=O)[C@@H](Cc2c[nH]c3ccccc23)NC(=O)[C@H](Cc2ccc(O)cc2)NC(=O)[C@H](NC(=O)[C@H](N)Cc2ccc3ccccc3c2)CSSC[C@@H](C(=O)N[C@@H](Cc2ccc3ccccc3c2)C(N)=O)NC1=O [Analog #10] (H-[d2Nal][dC]Y[dW]KVC[2Nal]-NH2; disulfide 2-7)
Result Unit: fold
Measured Value: 5

Compound: CC(C)[C@@H]1NC(=O)[C@H](CCCCN)NC(=O)[C@@H](Cc2c[nH]c3ccccc23)NC(=O)[C@H](Cc2ccc(O)cc2)NC(=O)[C@@H](NC(=O)[C@H](N)Cc2ccc3ccccc3c2)CSSC[C@@H](C(=O)N[C@H](Cc2ccc3ccccc3c2)C(N)=O)NC1=O [Analog #8] (H-[d2Nal]CY[dW]KVC[d2Nal]-NH2; disulfide 2-7)
Result Unit: fold
Measured Value: 6

Compound: CC(C)[C@@H]1NC(=O)[C@H](CCCCN)NC(=O)[C@@H](Cc2c[nH]c3ccccc23)NC(=O)[C@H](Cc2ccc(O)cc2)NC(=O)[C@@H](NC(=O)[C@H](N)Cc2ccc3ccccc3c2)CSSC[C@@H](C(=O)N[C@H](C(N)=O)[C@@H](C)O)NC1=O [Analog #5]
Result Unit: fold
Measured Value: 80
